Target: PD-1 on PD-1 reporter Jurkat cells (PATHHUNTER Checkpoint Signaling Assay) (UniProt Q15116 25-288)
Sequence (Q15116 25-288): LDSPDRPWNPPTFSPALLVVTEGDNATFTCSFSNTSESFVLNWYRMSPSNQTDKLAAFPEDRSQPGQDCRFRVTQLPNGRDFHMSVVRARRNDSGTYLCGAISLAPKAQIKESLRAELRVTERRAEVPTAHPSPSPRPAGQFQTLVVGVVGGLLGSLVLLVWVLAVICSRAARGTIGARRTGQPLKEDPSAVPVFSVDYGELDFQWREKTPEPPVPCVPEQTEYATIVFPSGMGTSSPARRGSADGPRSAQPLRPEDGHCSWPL
Test: cell-based or functional assay
reported metric: PD-1 Signaling EC50 (second incubation at 4 C), IgG/xlink (crosslinked IgG) (nM)

binder	assay result
Anti-PD-1 IgG #2 (antibody, V domains shown, IgG format; In the 'IgG/xlink' columns it was crosslinked 1:1 with goat anti-human IgG F(ab')2 fragment; also called Antibody #2 (IgG format); #2 IgG) VH: QVQLQESGPGVVKPSGTLSLTCAISGGSIGSGGSIRSTRWWSWVRQSPGKGLEWIGEIYHSGSTNYNPSLKSRVTISLDKSRNHFSLRLNSVTAADTAVYYCARQDYGDSGDWYFDLWGKGTMVTVSS VL: NFMLTQPHSVSESPGKTVTISCTRSSGSIASNSVQWYQQRPGSSPTTVIYEDNQRPSGVPDRFSGSIDSSSNSASLTVSGLKTEDEADYYCQSSDSSAVVFGSGTKLTVL	2.1
Anti-PD-1 IgG #1 (antibody, V domains shown, IgG format; In the 'IgG/xlink' columns it was crosslinked 1:1 with goat anti-human IgG F(ab')2 fragment; also called Antibody #1 (IgG format)) VH: EVQLQESGPGLVKPSQTLSLTCTVTGYSITSDYAWNWIRQPPGKKLEWMGYINYSGSTSYNPSLKSRVTISRDTSKNQFSLKLSSVTAADTAVYYCARWIGSSAWYFDVWGQGTLVTVS VL: DVLMTQTPLSLSVTPGQPASISCRSGQNIVHSNGNTYLEWYLQKPGQSPKLLIYKVSNRFFGVPDRISGSGSGTDFTLKISRVEAEDVGVYFCFQGSHVPFTFGQGTKLEIK	4.4
Anti-PD-1 IgG #3 (antibody, V domains shown) VH: QVQLVQSGAEVKKPGASVKVSCKVSGYSLSKYDMSWVRQAPGKGLEWMGIIYTSGYTDYAQKFQGRVTMTEDTSTDTAYMELSSLRSEDTAVYYCATGNPYYTNGFNSWGQGTLVTVSS VL: DIQMTQSPSSLSASVGDRVTITCQASQSPNNLLAWYQQKPGKAPKLLIYGASDLPSGVPSRFSGSGSGTDFTLTISSLQPEDFATYYCQNNYYVGPVSYAFGGGTKVEIK	0.19
Anti-PD-1 IgG #4 (antibody, V domains shown) VH: QVQLVQSGSELKKPGASVKVSCKASGYTFTDYSMHWVRQAPGQGLEWMGWINIETGEPTYAQGFTGRFVFSLDTSVSTAYLQISSLKAEDTAVYFCARDYYGTYFYAMDYWGQGTLVTVSS VL: EIVLTQSPATLSLSPGERATLSCTASSSVSSSYLHWYQQKPGLAPRLLIYSTSNLASGIPDRFSGSGSGTDYTLTISRLEPEDFAVYYCHQYHRSPLTFGQGTKLEIK	1.7

Source of measurements: patent US20230212293A1
